Recorded measurements of TGI, one per entry
# Test system: OVCAR-5 ovarian
# assay.protocol: NCI tumour cell line growth inhibition, 48 h
measure: TGI

| compound | observed.value |
| --- | --- |
| CN1C2=C(CC3=C1CC(C)(C)CC3=O)C(=O)CC(C)(C)C2 | > 100 µM |
| N#CN=[N+]([O-])c1ccc(C(=O)O)cc1 | 34.7 µM |
| O=C1Nc2ccccc2C1=Nc1cccc2ncccc12 | > 100 µM |
| CC[C@@H]1c2c(C#N)ncn2-c2cnc(Nc3ccc(C(=O)NC4CCN(C5CCN(CC6CC6)CC5)CC4)cc3OC)nc2N1C1CCCC1 | 1.39 µM |
| COc1cc(Br)c(C=Nc2cccc3cc(OC)c(OC)cc23)cc1OC | > 100 µM |
| CN(C)c1ccc(/C=C/C(=O)CC(=O)/C=C/c2ccc(N(C)C)cc2)cc1 | > 100 µM |
| O=C1CC(O)CC(=O)C1=C(O)CCCCCCCCCCc1ccccc1 (configuration not stated) | > 100 µM |
| O=C(O)CCCSC(=O)Nc1ccc(N=Nc2ccccc2)cc1 | > 100 µM |
| Cn1c(=O)c2c(nc3n(CCCCl)c(=O)ccn23)n(C)c1=O | > 100 µM |
| N=C(N)C1CN(CCCCCCCCCCN2CC(C(=N)N)C(=O)NC2=O)C(=O)NC1=O (configuration not stated) | > 10 µM |
| CC(CC[C@@H](O)C(C)(C)O)C1[C@@H](O)CC2(C)C3CC(O)C4C(C)(C)[C@@H](OC5OC(CO)C(O)C(O)C5O)CC[C@@]45C[C@@]35CC[C@]12C (some centres not stated) | > 10 µM |
| CCCCCC(C/C=N/N(C)C)C(O)(C(F)(F)F)C(F)(F)F (configuration not stated) | > 100 µM |
| C[C@]12C[C@H](CCCCCCNCCOC(=O)NCCCc3ccc(N(CCCl)CCCl)cc3)C3=C4CCC(=O)C=C4CCC3C1CC[C@@H]2O (some centres not stated) | 11 µM |
| Cc1nnn[n-]1.N.N.N.N.N.[Cl-].[Co+3] | > 100 µM |
| CC(=O)OCC1=C(C(=O)O)N2C(=O)C(NC(=O)CSc3ccncc3)C2SC1 (configuration not stated) | > 100 µM |
| CCN(C(=O)N[C@@H](Cc1ccccc1)C(=O)N[C@@H](CC(C)C)C(=O)OC)c1ccccc1 | 66.6 µM |
| COC(=O)CC1C[C@H](C#N)N(C(=O)c2ccccc2)C[C@@H]1CC[N+](=O)[O-] (some centres not stated) | > 100 µM |
